# TESTED TARGET: CDK4/cyclin D3 (Homo sapiens, UniProt P11802)
# Sequence (P11802 2-303 limits assumed): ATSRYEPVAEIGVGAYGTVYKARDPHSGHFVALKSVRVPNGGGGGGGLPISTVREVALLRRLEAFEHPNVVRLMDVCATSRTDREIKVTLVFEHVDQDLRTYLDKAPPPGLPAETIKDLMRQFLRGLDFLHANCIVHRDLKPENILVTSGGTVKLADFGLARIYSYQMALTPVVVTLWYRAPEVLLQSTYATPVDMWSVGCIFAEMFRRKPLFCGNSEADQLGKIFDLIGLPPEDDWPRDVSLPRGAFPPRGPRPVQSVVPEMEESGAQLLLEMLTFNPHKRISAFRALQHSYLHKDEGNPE
# Sequence (P30281 1-264 limits assumed, further chain): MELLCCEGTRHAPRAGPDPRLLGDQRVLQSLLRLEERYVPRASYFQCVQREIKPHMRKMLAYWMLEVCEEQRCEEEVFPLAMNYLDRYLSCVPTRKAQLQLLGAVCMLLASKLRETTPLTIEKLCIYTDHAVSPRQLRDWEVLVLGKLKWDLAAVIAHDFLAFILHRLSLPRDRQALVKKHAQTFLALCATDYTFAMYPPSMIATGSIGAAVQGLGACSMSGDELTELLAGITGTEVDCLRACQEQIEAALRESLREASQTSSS
# ASSAY PROTOCOL: Inhibition of CDK4/Cyclin D Retinoblastoma Kinase Activity
# MEASUREMENT PARAMETERS: apparent Ki
REPORTED METRIC: pKi
Answer as the number alone; pKi is minus log10 of concentration in mol/L.

Lab note: need pKi with CDK4/cyclin D3 (Homo sapiens, UniProt P11802) for entry `CCNCc1cncc(-c2ccc3[nH]nc(-c4nc5c(SC)cccc5[nH]4)c3c2)c1C` , please look it up.
9.10

Same for `CC(C)NCc1cccc2[nH]c(-c3n[nH]c4ccc(-c5cncc6ccccc56)cc34)nc12`
9.10

Same thing, different molecule: `COc1cccc(-c2ccc3[nH]nc(-c4nc5ccccc5[nH]4)c3c2)c1C`
5.66

Check `COc1cccc(-c2ccc3[nH]nc(-c4nc5ccccc5[nH]4)c3c2)c1` too.
6.32

Could you do the same for `c1ccc2c(-c3ccc4[nH]nc(-c5nc6c([nH]5)CCCC6)c4c3)cncc2c1` , please?
7.26

Further, for `Cc1c(C(N)=O)cncc1-c1ccc2[nH]nc(-c3nc4ccccc4[nH]3)c2c1` ?
6.72

Do the same for `CCc1c(-c2ccncc2)cncc1-c1ccc2[nH]nc(-c3nc4ccccc4[nH]3)c2c1` please
7.77

How about `Cc1c(O)cncc1-c1ccc2[nH]nc(-c3nc4ccccc4[nH]3)c2c1` ?
8.24

----------
# TESTED TARGET: CDK2/cyclin A (Homo sapiens, UniProt P24941)
# Construct: cyclin A: E. coli
# ASSAY PROTOCOL: Inhibition of CDK2/Cyclin A Retinoblastoma Kinase Activity
# MEASUREMENT PARAMETERS: apparent Ki
REPORTED METRIC: pKi
Note: pKi values are expressed as the negative base-10 logarithm of concentration in M.

Sample `CN1CCN(c2ccc3[nH]c(-c4n[nH]c5ccc(-c6cncc7ccccc67)cc45)nc3c2)CC1` — what was its pKi?
9.03

Another compound to look at: `Oc1cc(F)cc(F)c1-c1ccc2[nH]nc(-c3nc4ccccc4[nH]3)c2c1`
6.40

Here is the next compound: `COc1cccc(-c2ccc3[nH]nc(-c4nc5ccccc5[nH]4)c3c2)c1`
6.16

// query: `c1ccc(-c2ccc3[nH]nc(-c4nc5ccccc5[nH]4)c3c2)cc1`
6.62

// same read-out, input: `c1ccc2c(-c3ccc4[nH]nc(-c5nc6c(CCN7CCCC7)cccc6[nH]5)c4c3)cncc2c1`
9.00

Now this one: `Fc1ccccc1-c1ccc2[nH]nc(-c3nc4ccccc4[nH]3)c2c1`
6.80

What do we get for `CCc1c(-c2ccncc2)cncc1-c1ccc2[nH]nc(-c3nc4ccccc4[nH]3)c2c1` ?
8.92

Next compound: `Cc1c(CNCC(C)C)cncc1-c1ccc2[nH]nc(-c3nc4ccccc4[nH]3)c2c1`
8.72

----------
# TESTED TARGET: CDK2/cyclin A (Homo sapiens, UniProt P24941)
# Construct: cyclin A: E. coli
# ASSAY PROTOCOL: Inhibition of CDK2/Cyclin A Retinoblastoma Kinase Activity
# MEASUREMENT PARAMETERS: apparent Ki
Exam item: assign Y to entries whose Ki is below 1 nM and N to entries at or above 1 nM. Note that a value of exactly 1 nM receives N.

Consider the compound `c1ccc2[nH]c(-c3n[nH]c4ccc(-c5cncc6c5CCCN6)cc34)nc2c1` . Is its Ki strictly less than 1 nM?
Y

How about `C(=C\c1n[nH]c2ccc(-c3ccnc4ccccc34)cc12)/c1ccccc1` ?
N

Item: `Cc1c(-c2ccc3[nH]nc(-c4nc5ccccc5[nH]4)c3c2)ccc(CCCO)c1O`
N

Note, next up: `c1ccc(CNc2cccc3c(-c4ccc5[nH]nc(-c6nc7ccccc7[nH]6)c5c4)cncc23)cc1`
N

Try this compound too: `O=C(Nc1cccc2c(-c3ccc4[nH]nc(-c5nc6ccccc6[nH]5)c4c3)cncc12)c1cccnc1`
N

Please give the result for `Cc1c(-c2ccc3[nH]nc(/C=C/c4ccccc4)c3c2)ccc(CCCO)c1O` too.
N

Also, `CCNCc1cncc(-c2ccc3[nH]nc(-c4nc5ccccc5[nH]4)c3c2)c1C` please.
N

Also CNC(C)c1cccc2[nH]c(-c3n[nH]c4ccc(-c5cncc6ccccc56)cc34)nc12 (centres unmarked) , if possible.
Y

And for `FC(F)(F)c1ccccc1-c1ccc2[nH]nc(-c3ccccc3)c2c1` ?
N

Let us now turn to `Cc1c(/C=C/CO)cncc1-c1ccc2[nH]nc(-c3nc4ccccc4[nH]3)c2c1`
Y

Now this one: `Oc1ccc(-c2ccc3[nH]nc(-c4nc5ccccc5[nH]4)c3c2)cc1`
N

What about `CCNCc1cccc2[nH]c(-c3n[nH]c4ccc(-c5cncc6ccccc56)cc34)nc12` ?
Y

# iterate: `CC(=O)N1CCCc2c(-c3ccc4[nH]nc(-c5nc6ccccc6[nH]5)c4c3)cncc21`
N

What do we get for `CNCc1cccc2[nH]c(-c3n[nH]c4ccc(-c5cncc6ccccc56)cc34)nc12` ?
Y

Another compound to look at: `Cc1c(CN(C)C)cncc1-c1ccc2[nH]nc(-c3nc4ccccc4[nH]3)c2c1`
N

Another compound to check: `Cc1c(CO)cncc1-c1ccc2[nH]nc(-c3nc4ccccc4[nH]3)c2c1`
N

Reference source for all entries: patent US7232912B2
